Reported GI50 values are given for each entry in this list.
# Test system: Malme-3M
# test description: NCI tumour cell line growth inhibition, 48 h
The campaign covered roughly 54,000 sequences. About 3,300 (6.1%) were called active. The list is a sample of the results. Results with a measured potency or affinity are listed apart.
quantity kind: GI50 (nM)

INSERT INTO measurements (substance, quantity_kind, val) VALUES
  ('[Bis(aminomethyl)dimethylsilane]dichloroplatinum (II), CHEMBL2146201', 'GI50', 17700),
  ('[Bis(aminomethyl)tetramethylenesilane]tetrachloropaltinum(IV), CHEMBL2146189', 'GI50', 1620),
  ('[Bis(aminomethyl)dimethylsilane]tetrachloroplatinum(IV), CHEMBL2146190', 'GI50', 2770),
  ('[Bis(aminomethyl)diethylsilane]tetrachloroplatinum(IV), CHEMBL2146203', 'GI50', 1220),
  ('cis-Bis[[(trimethylsilyl)methyl]amino]tetrachloroplatinum(IV), CHEMBL2146191', 'GI50', 2250),
  ('[Bis(aminomethyl)ethylmethylsilane]tetrachloroplatinum(IV), CHEMBL2146192', 'GI50', 2080);
